Test system: MCF7
assayMethodText: Cytotoxicity against human MCF7 cells after 72 hrs by MTT assay
Assay type: functional, cell-based
testContext: MCF7, 72 h

{"chemicalSmiles": "CO[C@H]1C(=O)[C@]2(C)[C@@H](OC)C[C@H]3OC[C@@]3(OC(C)=O)[C@H]2[C@H](OC(=O)c2ccccc2)[C@]23OC(=O)O[C@H]2[C@H](OC(=O)[C@H](O)[C@@H](NC(=O)c2ccccc2)c2ccccc2)C(C)=C1C3(C)C", "testedTarget": "MCF7", "outputUnit": "nM", "IC50": 6.93}
{"chemicalSmiles": "CO[C@H]1C[C@H]2OC[C@@]2(OC(C)=O)[C@H]2[C@H](OC(=O)c3ccccc3)[C@]34OC(=O)O[C@H]3[C@H](OC(=O)[C@H](O)[C@@H](NC(=O)OC(C)(C)C)c3ccccn3)C(C)=C([C@@H](OC(=O)N(C)C)C(=O)[C@]12C)C4(C)C", "testedTarget": "MCF7", "outputUnit": "nM", "IC50": 14.3}
{"chemicalSmiles": "COC(=O)O[C@H]1C[C@H]2OC[C@@]2(OC(C)=O)[C@H]2[C@H](OC(=O)c3ccccc3)[C@]3(O)C[C@H](OC(=O)[C@H](O)[C@H](CC(C)C)NC(=O)OC(C)(C)C)C(C)=C([C@@H](OC)C(=O)[C@]12C)C3(C)C", "testedTarget": "MCF7", "outputUnit": "nM", "IC50": 2.81}
{"chemicalSmiles": "CO[C@H]1C(=O)[C@]2(C)CC[C@H]3OC[C@@]3(OC(C)=O)[C@H]2[C@H](OC(=O)c2ccccc2)[C@]23OC(=O)O[C@H]2[C@H](OC(=O)[C@H](O)[C@@H](NC(=O)OC(C)(C)C)c2ccccc2)C(C)=C1C3(C)C", "testedTarget": "MCF7", "outputUnit": "nM", "IC50": 4.49}
{"chemicalSmiles": "CO[C@H]1C(=O)[C@]2(C)[C@@H](OC(=O)N(C)C)C[C@H]3OC[C@@]3(OC(C)=O)[C@H]2[C@H](OC(=O)c2ccccc2)[C@]2(O)C[C@H](OC(=O)[C@H](O)[C@@H](NC(=O)OC(C)(C)C)c3ccccc3)C(C)=C1C2(C)C", "testedTarget": "MCF7", "outputUnit": "nM", "IC50": 9.63}
{"chemicalSmiles": "CO[C@H]1C(=O)[C@]2(C)[C@@H](OC)C[C@H]3OC[C@@]3(OC(C)=O)[C@H]2[C@H](OC(=O)c2ccccc2)[C@]23OC(=O)O[C@H]2[C@H](OC(=O)[C@H](O)[C@H](CC(C)C)NC(=O)OC(C)(C)C)C(C)=C1C3(C)C", "testedTarget": "MCF7", "outputUnit": "nM", "IC50": 4.04}
{"chemicalSmiles": "CO[C@H]1C(=O)[C@]2(C)[C@@H](OC(=O)N(C)C)C[C@H]3OC[C@@]3(OC(C)=O)[C@H]2[C@H](OC(=O)c2ccccc2)[C@]2(O)C[C@H](OC(=O)[C@H](O)[C@H](CC(C)C)NC(=O)OC(C)(C)C)C(C)=C1C2(C)C", "testedTarget": "MCF7", "outputUnit": "nM", "IC50": 13.3}
{"chemicalSmiles": "CO[C@H]1C[C@H]2OC[C@@]2(OC(C)=O)[C@H]2[C@H](OC(=O)c3ccccc3)[C@]3(O)C[C@H](OC(=O)[C@H](O)[C@H](CC(C)C)NC(=O)OC(C)(C)C)C(C)=C([C@@H](OC(=O)N(C)C)C(=O)[C@]12C)C3(C)C", "testedTarget": "MCF7", "outputUnit": "nM", "IC50": 1.7}

FYI, the data here is from ChEMBL document CHEMBL3098054.
